# Tested on: MDR1-MDCK cell monolayers
# assay.method.text: MDCK-MDR1 permeability assay (BBB penetration potential)
# Type: in vitro ADME
# condition.details: dog, MDCK-MDR1, 120 min, 5 μM, pH 7.4
Use MET when the recorded MDCK-MDR1: % Recov B-A is no lower than 80%; use NOT MET when it is lower.

Answered examples (4):
INSERT INTO assay_data (compound, assigned_class) VALUES
  ('Cn1cc(-c2ccc(-c3ccc(O[C@@H]4C[C@H]5COC[C@H](N5)[C@@H]4F)nn3)c(O)c2)cn1 (single isomer, unassigned)', 'MET'),
  ('Oc1cc(-c2ccccn2)ccc1-c1ccc(O[C@@H]2C[C@H]3CCC[C@H](N3)[C@@H]2F)nn1 (single isomer, unassigned)', 'NOT MET'),
  ('O=c1cc(-c2ccc(-c3ccc(O[C@@H]4C[C@H]5CCC[C@H](N5)[C@@H]4F)nn3)c(O)c2)ccn1CF (single isomer, unassigned)', 'MET'),
  ('Oc1cc2cnccc2cc1-c1ccc(O[C@H]2C[C@@H]3CCC[C@@H](N3)[C@H]2F)nn1 (single isomer, unassigned)', 'MET');

As a next step, examine the compound that follows.
Is MDCK-MDR1: % Recov B-A at least 80%? Consider Cn1cc(-c2ccc(-c3ccc(O[C@H]4C[C@H]5CCC[C@H](N5)[C@H]4F)nn3)c(O)c2)cn1 (single isomer, unassigned) NOT MET
